assay_system: interleukin converting enzyme (ICE) (Homo sapiens, UniProt P29466)
Sequence (P29466 120-297 limits assumed): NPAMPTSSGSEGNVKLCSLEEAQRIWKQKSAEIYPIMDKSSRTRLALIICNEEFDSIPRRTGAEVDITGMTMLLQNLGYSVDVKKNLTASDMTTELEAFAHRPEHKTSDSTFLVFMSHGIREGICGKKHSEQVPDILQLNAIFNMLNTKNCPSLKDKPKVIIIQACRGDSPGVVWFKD
Sequence (P29466 317-404 limits assumed): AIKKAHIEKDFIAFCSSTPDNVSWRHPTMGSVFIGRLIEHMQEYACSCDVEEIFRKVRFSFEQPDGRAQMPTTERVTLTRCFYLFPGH
test: ICE inhibition (inhibition constant)
settings: reversible covalent binding (thiohemiacetal linkage) to ICE
property_label: Ki

Suppose we examine the compound `O=C(c1ccccc1)c1ccccn1` ; what Ki value has been reported?
~1 µM
